Tested on: EIF2AK4 KD2 (human), Q9P2K8 [S808G]
Sequence (Q9P2K8 whole entry S808G, looked up): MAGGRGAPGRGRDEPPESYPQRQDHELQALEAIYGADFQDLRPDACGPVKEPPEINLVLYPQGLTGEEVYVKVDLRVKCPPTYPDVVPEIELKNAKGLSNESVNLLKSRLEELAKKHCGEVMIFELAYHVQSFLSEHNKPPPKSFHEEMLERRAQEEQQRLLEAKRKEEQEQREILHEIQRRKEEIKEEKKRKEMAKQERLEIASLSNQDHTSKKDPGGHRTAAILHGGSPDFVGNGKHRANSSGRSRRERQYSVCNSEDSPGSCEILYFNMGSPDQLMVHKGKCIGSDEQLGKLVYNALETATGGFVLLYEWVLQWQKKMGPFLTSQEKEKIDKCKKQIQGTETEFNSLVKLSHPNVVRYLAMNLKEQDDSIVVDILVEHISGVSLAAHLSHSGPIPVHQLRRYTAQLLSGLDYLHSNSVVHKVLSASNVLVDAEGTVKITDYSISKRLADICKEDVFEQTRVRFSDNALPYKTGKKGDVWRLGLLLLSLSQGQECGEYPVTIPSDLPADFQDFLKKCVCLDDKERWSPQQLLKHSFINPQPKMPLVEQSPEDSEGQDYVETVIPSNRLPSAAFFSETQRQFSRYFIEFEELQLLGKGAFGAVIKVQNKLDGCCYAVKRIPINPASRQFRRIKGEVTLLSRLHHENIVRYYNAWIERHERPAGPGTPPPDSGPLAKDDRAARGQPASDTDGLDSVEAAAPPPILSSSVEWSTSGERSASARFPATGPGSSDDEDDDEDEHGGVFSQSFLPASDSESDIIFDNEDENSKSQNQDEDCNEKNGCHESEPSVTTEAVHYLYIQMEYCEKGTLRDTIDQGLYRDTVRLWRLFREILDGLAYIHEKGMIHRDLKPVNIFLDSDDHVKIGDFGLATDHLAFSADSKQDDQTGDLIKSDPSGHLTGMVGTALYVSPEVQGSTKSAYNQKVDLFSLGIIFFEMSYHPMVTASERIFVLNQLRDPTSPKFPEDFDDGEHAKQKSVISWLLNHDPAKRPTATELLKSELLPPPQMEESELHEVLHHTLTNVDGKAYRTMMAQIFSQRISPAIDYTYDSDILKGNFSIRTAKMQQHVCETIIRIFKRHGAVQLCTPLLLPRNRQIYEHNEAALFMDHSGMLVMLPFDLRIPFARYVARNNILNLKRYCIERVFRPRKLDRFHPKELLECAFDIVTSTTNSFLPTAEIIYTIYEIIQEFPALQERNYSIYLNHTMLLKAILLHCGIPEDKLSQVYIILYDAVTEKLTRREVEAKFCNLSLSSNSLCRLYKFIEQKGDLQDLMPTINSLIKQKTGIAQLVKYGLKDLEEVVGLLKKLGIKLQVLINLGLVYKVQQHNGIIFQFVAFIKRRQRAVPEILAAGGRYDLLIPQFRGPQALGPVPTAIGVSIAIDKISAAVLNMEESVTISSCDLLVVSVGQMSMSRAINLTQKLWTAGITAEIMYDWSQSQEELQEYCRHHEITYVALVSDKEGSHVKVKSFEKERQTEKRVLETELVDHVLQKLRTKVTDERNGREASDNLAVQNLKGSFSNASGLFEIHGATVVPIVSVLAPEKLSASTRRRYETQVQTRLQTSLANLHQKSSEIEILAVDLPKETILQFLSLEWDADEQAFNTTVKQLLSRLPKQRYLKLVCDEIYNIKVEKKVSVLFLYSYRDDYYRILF
Assay: KINOMEscan competition binding
Conditions: compound 10.0 µM
I'd be grateful if you could share measured kinase still bound, per cent of control for these entries.
Include the unit after the number when you answer.

The measured kinase still bound, per cent of control associated with `N=C1NC(=O)/C(=C/c2ccc(-c3cnc4ccccc4c3)o2)S1` reads 26%

The measured kinase still bound, per cent of control associated with `N=C1NC(=O)/C(=C/c2c[nH]c(=O)c(-c3ccc(N4CCNCC4)nc3)c2)S1` reads 1.4%

The measured kinase still bound, per cent of control associated with `COc1cc(N2CCC(O)CC2)ccc1Nc1ncc2c(n1)N1CCc3cccc(c31)C(=O)N2C` reads 100%

The measured kinase still bound, per cent of control associated with `COc1cc(N2CCN(C)CC2)ccc1Nc1ncc2c(n1)N1CCC[C@H]1CC(=O)N2C` reads 18%

The measured kinase still bound, per cent of control associated with `Nc1cccc(-c2cc(/C=C3\SC(=O)NC3=O)c[nH]c2=O)c1` reads 0.6%

The measured kinase still bound, per cent of control associated with `COc1cc(C(N)=O)ccc1-c1ccc(/C=C2\SC(=N)NC2=O)o1` reads 29%

The measured kinase still bound, per cent of control associated with `CN1C(=O)c2ccccc2N(C)c2nc(NS(=O)(=O)c3ccc(N)cc3)ncc21` reads 100%

The measured kinase still bound, per cent of control associated with `CN1C(=O)c2ccccc2N(C)c2nc(Nc3ccc(N4CCC(O)CC4)cc3)ncc21` reads 98%

The measured kinase still bound, per cent of control associated with `COc1cc(N2CCN(C)CC2)ccc1Nc1ncc2c(n1)N(C)c1sccc1C(=O)N2C` reads 82%

The measured kinase still bound, per cent of control associated with `O=C1NC(=O)/C(=C/c2c[nH]c(=O)c(-c3ccc(N4CCNCC4)nc3)c2)S1` reads 2.6%

The measured kinase still bound, per cent of control associated with `COc1cc(N2CCN(C)CC2)ccc1Nc1ncc2c(n1)N1CCC[C@H]1CC(=O)N2` reads 21%

The measured kinase still bound, per cent of control associated with COc1cc(N2CCC(N3CCN(C)CC3)CC2)ccc1Nc1ncc2c(n1)N1CCCC1CC(=O)N2C (configuration not stated) reads 32%

The measured kinase still bound, per cent of control associated with `N=C1NC(=O)/C(=C/c2ccc(-c3ccc(C(N)=O)cc3O)o2)S1` reads 16%

The measured kinase still bound, per cent of control associated with `N=C1NC(=O)/C(=C/c2c[nH]c(=O)c(-c3ccc4cc[nH]c4c3)c2)S1` reads 21%

The measured kinase still bound, per cent of control associated with `COc1cc(N2CCN(C)CC2)ccc1Nc1ncc2c(n1)Nc1ccccc1NC2=O` reads 12%

The measured kinase still bound, per cent of control associated with `CS(=O)(=O)Nc1ccc(-c2cc(/C=C3\SC(=N)NC3=O)c[nH]c2=O)cc1` reads 25%

The measured kinase still bound, per cent of control associated with `N=C1NC(=O)/C(=C/c2ccc(-c3csc4ccccc34)o2)S1` reads 33%

The measured kinase still bound, per cent of control associated with `CN1CCN(c2ccc(C(=O)Nc3ncc4c(n3)N(C)c3ccccc3C(=O)N4C)cc2)CC1` reads 100%

The measured kinase still bound, per cent of control associated with `O=C1NC(=O)/C(=C/c2c[nH]c(=O)c(-c3ccc(C(=O)Nc4ccc(N5CCNCC5)cc4)cc3)c2)S1` reads 27%

The measured kinase still bound, per cent of control associated with `COc1cc(N2CCN(C)CC2)ccc1Nc1ncc2c(n1)N(C)c1ccccc1N(C)C2=O` reads 100%

The measured kinase still bound, per cent of control associated with `N=C1NC(=O)/C(=C/c2ccc(-c3cncc4ccccc34)o2)S1` reads 0.7%

The measured kinase still bound, per cent of control associated with `CSC1=NC(=O)/C(=C/c2c[nH]c(=O)c(-c3ccc(NS(C)(=O)=O)cc3)c2)S1` reads 16%

These data points were gathered from the kinase profiling compilation of Christmann-Franck et al. (2016).
